Can you tell me IC50 for the items I'm about to list?
# target desc: UniProt:P28571
# assay details: Glycine Uptake Inhibition Assay (mGlyT-1b)
# cond: [3H]-glycine uptake inhibition at GlyT-1, Flp-in-CHO cells transfected with mGlyT-1b cDNA
Numbers only, in nM.

Observe how each entry below is paired with its result.
INSERT INTO measurements (compound, assay_metric, unit_abbrev, measured_value) VALUES
  ('CCC(C)Oc1ccc(S(C)(=O)=O)cc1C(=O)N1CCN(c2ccc(S(=O)(=O)CC)cc2F)CC1 (racemic)', 'IC50', 'nM', 44),
  ('CNS(=O)(=O)c1ccc(OCC2CCC2)c(C(=O)N2CCN(c3ccc(C(F)(F)F)cc3)CC2)c1', 'IC50', 'nM', 5.7),
  ('CC(C)(C)COc1ccc(S(C)(=O)=O)cc1C(=O)N1CCN(c2ccc(S(C)(=O)=O)cc2F)CC1', 'IC50', 'nM', 43),
  ('O=C(c1cc([N+](=O)[O-])ccc1OC1CC2CCC1C2)N1CCN(c2ccc(C(F)(F)F)cc2)CC1 (centres unmarked)', 'IC50', 'nM', 7),
  ('CC(C)(C)Oc1ccc(S(C)(=O)=O)cc1C(=O)N1CCN(c2ccc(C#N)cc2F)CC1', 'IC50', 'nM', 42);

Quick one: give me IC50 for each item below, same order please.
1. CC(Oc1ccc(S(C)(=O)=O)cc1C(=O)N1CCN(c2ccc(Cl)c(Cl)c2)CC1)C(F)(F)F (racemic)
2. CS(=O)(=O)c1ccc(OCCC(F)(F)F)c(C(=O)N2CCN(c3ccc(C(F)(F)F)cc3F)CC2)c1
3. CC(C)Oc1ccc(S(C)(=O)=O)cc1C(=O)N1CCN(c2ccc(S(=O)(=O)C3CCC3)cc2F)CC1
4. CNS(=O)(=O)c1ccc(OCC2CCC2)c(C(=O)N2CCN(c3ccc(C#N)c(F)c3)CC2)c1
5. CC(C)COc1ccc([N+](=O)[O-])cc1C(=O)N1CCN(c2ccc(C(F)(F)F)cc2)CC1

Ans.
[86, 44, 46, 30, 8]

Could you report IC50 for every entry in the following list?
1. CC(Oc1ccc(S(C)(=O)=O)cc1C(=O)N1CCN(c2ccc(C(F)(F)F)cn2)CC1)C(F)(F)F (single isomer, unassigned) [compound 464]
2. CNS(=O)(=O)c1ccc(OC(C)C(F)(F)F)c(C(=O)N2CCN(c3ccc(C#N)c(F)c3F)CC2)c1 (racemic)
3. CC(C)Oc1ccc(S(C)(=O)=O)cc1C(=O)N1CCN(c2ccc(S(=O)(=O)C3CCCC3)cc2F)CC1
4. CC(=O)c1ccc(N2CCN(C(=O)c3cc(S(C)(=O)=O)ccc3OC3CCC3)CC2)c(F)c1

Ans.
[20, 29, 50, 45]

====

Assign pIC50 to each entry below.
# target desc: mGlyT-1b (Mus musculus)
# Sequence (P28571 1-651 isoform P28571-2): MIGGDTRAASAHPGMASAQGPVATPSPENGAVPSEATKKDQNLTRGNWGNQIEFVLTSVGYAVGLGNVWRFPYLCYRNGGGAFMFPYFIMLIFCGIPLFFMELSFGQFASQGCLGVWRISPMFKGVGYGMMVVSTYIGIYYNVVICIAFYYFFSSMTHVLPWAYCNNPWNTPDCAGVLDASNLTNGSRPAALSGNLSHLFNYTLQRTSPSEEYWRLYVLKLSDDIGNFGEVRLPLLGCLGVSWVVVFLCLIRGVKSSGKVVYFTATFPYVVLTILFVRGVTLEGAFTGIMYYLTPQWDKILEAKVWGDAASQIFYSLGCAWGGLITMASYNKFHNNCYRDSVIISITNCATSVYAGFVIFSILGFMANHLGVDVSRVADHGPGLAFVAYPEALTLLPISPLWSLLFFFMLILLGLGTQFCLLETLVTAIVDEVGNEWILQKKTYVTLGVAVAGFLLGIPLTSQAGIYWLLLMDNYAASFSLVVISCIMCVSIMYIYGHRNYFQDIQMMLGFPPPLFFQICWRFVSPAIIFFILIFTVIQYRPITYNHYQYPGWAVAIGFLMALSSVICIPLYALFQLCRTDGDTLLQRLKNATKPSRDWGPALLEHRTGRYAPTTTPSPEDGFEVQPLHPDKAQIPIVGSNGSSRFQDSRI
# assay details: Glycine Uptake Inhibition Assay (mGlyT-1b)
# cond: [3H]-glycine uptake inhibition at GlyT-1, Flp-in-CHO cells transfected with mGlyT-1b cDNA
Numbers only, as −log10 of the molar value.

Below, each entry is followed by its recorded pIC50 result.
INSERT INTO assay_data (compound, assay_metric, measured_value) VALUES
  ('CC(Oc1ccc(S(C)(=O)=O)cc1C(=O)N1CCN(c2c(F)cc(C#N)cc2F)CC1)C(F)(F)F (racemic) [compound 260]', 'pIC50', 7.37),
  ('CC(C)Oc1ccc(S(C)(=O)=O)cc1C(=O)N1CCN(c2ccc(Cl)cc2C#N)CC1 [compound 202]', 'pIC50', 7.62);

For each of the compounds below, note its pIC50.
1. CCC(C)Oc1ccc(S(C)(=O)=O)cc1C(=O)N1CCN(c2ccc(C(F)(F)F)c(F)c2)CC1 (racemic) [compound 325]
2. CC(=O)c1ccc(N2CCN(C(=O)c3cc(S(C)(=O)=O)ccc3OCC3CCC3)CC2)c(F)c1 [compound 142]
3. CC(C)(C)COc1ccc(S(C)(=O)=O)cc1C(=O)N1CCN(c2ccc(C#N)cc2)CC1 [compound 290]
4. CNS(=O)(=O)c1ccc(OCC2CC2)c(C(=O)N2CCN(c3ccc(C(C)=O)cc3F)CC2)c1 [compound 519]

Ans.
[7.48, 7.47, 7.77, 7.46]

Below are 2 compounds. Give each one its pIC50.
1. CS(=O)(=O)c1ccc(OC2CCCCC2)c(C(=O)N2CCN(c3ccc(S(=O)(=O)C4CC4)cc3F)CC2)c1 [compound 574]
2. CS(=O)(=O)c1ccc(OCC(F)(F)C(F)(F)F)c(C(=O)N2CCN(c3c(F)cc(C#N)cc3F)CC2)c1 [compound 186]

Ans.
1. 7.47
2. 7.32
